IC50 reference
# system-name: Squalene synthase (Rattus norvegicus, UniProt Q02769)
# Sequence (Q02769 whole entry): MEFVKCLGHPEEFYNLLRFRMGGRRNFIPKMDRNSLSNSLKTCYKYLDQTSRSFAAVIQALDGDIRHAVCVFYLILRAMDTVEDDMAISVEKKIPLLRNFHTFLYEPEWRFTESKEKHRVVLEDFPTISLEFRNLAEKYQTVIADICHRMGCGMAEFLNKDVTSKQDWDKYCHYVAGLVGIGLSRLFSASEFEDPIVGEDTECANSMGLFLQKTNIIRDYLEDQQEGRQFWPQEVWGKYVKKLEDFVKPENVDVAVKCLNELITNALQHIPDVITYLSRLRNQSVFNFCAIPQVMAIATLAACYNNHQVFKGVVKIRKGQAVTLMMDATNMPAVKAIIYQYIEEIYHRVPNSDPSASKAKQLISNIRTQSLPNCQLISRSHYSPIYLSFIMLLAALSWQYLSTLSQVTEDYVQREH
# assay-summary: Inhibition of squalene synthase in rat hepatic cells
# output: bare number, implied unit nM

query: Please give the measured IC50 for this molecule: "COc1cccc([C@H]2O[C@H](CCn3cc(CC(=O)O)cn3)c3cccn3-c3ccc(Cl)cc32)c1OC"
result: 3.1

query: Please give the measured IC50 for this molecule: "COc1cccc([C@H]2O[C@H](CCn3nnc(CCC(=O)O)n3)c3cccn3-c3ccc(Cl)cc32)c1OC"
result: 0.85

query: Please give the measured IC50 for this molecule: "COc1cccc([C@H]2O[C@H](CCC(=O)N3CCC(OCC(=O)O)CC3)c3cccn3-c3ccc(Cl)cc32)c1OC"
result: 0.8

query: Please give the measured IC50 for this molecule: "COc1cccc([C@H]2O[C@H](CCn3cc(C(=O)O)nn3)c3cccn3-c3ccc(Cl)cc32)c1OC"
result: 0.59

Lab note: next molecule to report on.
query: Please give the measured IC50 for this molecule: "CCC(CC)(OCc1cn(CC[C@H]2O[C@H](c3cccc(OC)c3OC)c3cc(Cl)ccc3-n3cccc32)nn1)C(=O)O"
result: 1.7
